molecular target: Nrf2-Keap1 complex (Homo sapiens, UniProt Q14145); test: cell-based; type: cell-based
Sequence (Q14145 whole entry, one chain of several): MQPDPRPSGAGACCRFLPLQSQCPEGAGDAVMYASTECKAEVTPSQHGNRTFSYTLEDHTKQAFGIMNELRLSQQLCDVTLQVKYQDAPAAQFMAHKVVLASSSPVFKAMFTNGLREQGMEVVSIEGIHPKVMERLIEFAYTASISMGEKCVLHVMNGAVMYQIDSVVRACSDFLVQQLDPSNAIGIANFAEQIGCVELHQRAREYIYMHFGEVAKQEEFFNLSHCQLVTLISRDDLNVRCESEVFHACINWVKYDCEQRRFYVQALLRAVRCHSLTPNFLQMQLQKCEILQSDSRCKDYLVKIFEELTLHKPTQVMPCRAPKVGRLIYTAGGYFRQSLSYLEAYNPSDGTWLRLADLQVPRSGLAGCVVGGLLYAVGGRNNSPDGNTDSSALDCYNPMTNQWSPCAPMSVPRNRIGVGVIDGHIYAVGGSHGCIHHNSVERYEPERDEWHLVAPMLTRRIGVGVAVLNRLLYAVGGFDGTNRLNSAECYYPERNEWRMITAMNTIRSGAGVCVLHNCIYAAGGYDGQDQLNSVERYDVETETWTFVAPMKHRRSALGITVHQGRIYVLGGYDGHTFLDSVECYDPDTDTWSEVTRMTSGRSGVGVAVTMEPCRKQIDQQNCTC
Where a name gives a salt, the structure may show the parent alone.
quantity measured: 200 nL (luminescence)
The answer should be a number; do not append a unit.

The following compounds have reported results that may help.
>  <compound>
COC(=O)C(N)CS (centres unmarked) [MECYSTEINEHYDROCHLORIDE, reference compound]

>  <200 nL (luminescence)>
3064

$$$$
>  <compound>
Nc1ncnc2c1ncn2[C@H]1C[C@H](O)[C@@H](CO)O1

>  <200 nL (luminescence)>
390

$$$$
>  <compound>
CC1CCC(NC(=O)N(CCCl)N=O)CC1 (centres unmarked) [SEMUSTINE, reference compound]

>  <200 nL (luminescence)>
3000

$$$$
>  <compound>
O=C(/C=C/c1ccccc1)c1ccc(O)cc1 [4′-HYDROXYCHALCONE]

>  <200 nL (luminescence)>
1488

$$$$
>  <compound>
C[C@]12CCC(=O)C=C1C=C[C@@H]1[C@@H]2CC[C@@]2(C)[C@H]1CC[C@@]21CCC(=O)O1 [CANRENONE, reference compound]

>  <200 nL (luminescence)>
832

$$$$

Give a short answer stating reported 200 nL (luminescence) for `CC(C)C1=CC2=CC[C@@H]3[C@](C)(CCC[C@@]3(C)C(=O)O)[C@H]2CC1` . 1748

Give a short answer stating reported 200 nL (luminescence) for C[C@]12C=CC(=O)C=C1CC[C@@H]1[C@@H]2[C@@H](O)C[C@@]2(C)[C@H]1CC[C@]2(O)C(=O)CO [PREDNISOLONE, reference compound] . 1452

Give a short answer stating reported 200 nL (luminescence) for `O=C(CC(=O)c1ccccc1)c1ccccc1` . 204

----------
target: Nrf2-Keap1 complex (Homo sapiens, UniProt Q14145); test: cell-based; format: cell-based; settings: 3 h, read-out: Activation 200 nL
quantity measured: activation at 32 µM (%)
Express the result in % but write the number alone.

>  <compound>
CCOC(=O)CCC(=O)O[C@H]1[C@H](O[C@@H]2[C@@H](C)[C@H](O[C@H]3C[C@@](C)(OC)[C@@H](O)[C@H](C)O3)[C@@H](C)C(=O)O[C@H](CC)[C@@](C)(O)[C@H](O)[C@@H](C)C(=O)[C@H](C)C[C@@]2(C)O)O[C@H](C)C[C@@H]1N(C)C [ERYTHROMYCINETHYLSUCCINATE, reference compound]

>  <system name>
Nrf2-Keap1 complex (Homo sapiens, UniProt Q14145)

>  <quantity measured>
activation at 32 µM

>  <result number>
-20

$$$$

# next compound below
Give a short answer stating reported activation at 32 µM for COc1ccc2cc1Oc1ccc(cc1)C[C@H]1c3c(cc4c(c3Oc3cc5c(cc3OC)CCN(C)[C@@H]5C2)OCO4)CCN1C [CEPHARANTHINE, reference compound] . 9

----------
200 nL (luminescence) listing for selected molecules.
molecular target: Nrf2-Keap1 complex (Homo sapiens, UniProt Q14145); test: cell-based; assay type: cell-based; conditions: Table 2; 200 nL compound; screen run at 16 and 32 μM, 3 hr
Where a name gives a salt, the structure may show the parent alone.
The answer should be a number; do not append a unit.

The following molecules have reported results that may help.
>  <molecule>
NCCc1cc(O)c(O)cc1O [OXIDOPAMINEHYDROCHLORIDE]

>  <quantity measured>
200 nL (luminescence)

>  <result number>
2936

$$$$
>  <molecule>
O=c1c(O)c(-c2ccccc2)oc2cccc(O)c12 [3,5-DIHYDROXYFLAVONE]

>  <quantity measured>
200 nL (luminescence)

>  <result number>
24

$$$$
>  <molecule>
O=C1c2cccc(O)c2C(=O)c2c(O)cccc21 [DANTRON, reference compound]

>  <quantity measured>
200 nL (luminescence)

>  <result number>
1020

$$$$

Give a short answer stating reported 200 nL (luminescence) for CC(=O)O[C@@H]1CC2C(C)(C)C(=O)C3OC3[C@]2(C)C2CC[C@@]3(C)[C@H](c4ccoc4)OC(=O)C4OC43[C@@]21C (some centres unmarked) . 988

Give a short answer stating reported 200 nL (luminescence) for `CCOc1ccc(C(=O)c2ccc(OC)c(O)c2O)cc1` . 1324

Give a short answer stating reported 200 nL (luminescence) for `COc1ccc2c(c1)OCC(=Cc1ccc(O)c(O)c1)C2=O` . 2904

Give a short answer stating reported 200 nL (luminescence) for `COc1cc(O)c2c(=O)c(O)c(-c3ccc(O)c(O)c3)oc2c1` . 1536

Give a short answer stating reported 200 nL (luminescence) for `COc1ccc(-c2coc3cc(O)ccc3c2=O)c(O)c1O` . 492

Give a short answer stating reported 200 nL (luminescence) for `COC(=O)CC[C@@H](C)[C@H]1CC[C@H]2[C@@H]3[C@H](O)C[C@@H]4C[C@H](O)CC[C@]4(C)[C@H]3C[C@H](O)[C@]12C` . 804

----------
100 nL (luminescence) listing for selected molecules.
biological target: Nrf2-Keap1 complex (Homo sapiens); assay: cell-based; assay type: cell-based; settings: Table 1A; 100 nL compound; screen run at 16 and 32 μM, 3 hr

Give a short answer stating reported 100 nL (luminescence) for `COc1cc([C@@H]2c3cc4c(c(O)c3C[C@H]3COC(=O)[C@@H]32)OCO4)cc(OC)c1OC` . 910

Give a short answer stating reported 100 nL (luminescence) for C=C(NC(=O)C(=C)NC(=O)c1csc(C2=N[C@@H]3c4csc(n4)[C@H]4NC(=O)c5csc(n5)[C@H]([C@](C)(O)[C@@H](C)O)NC(=O)[C@H]5CSC(=N5)/C(=C/C)NC(=O)[C@H]([C@@H](C)O)NC(=O)c5csc(n5)[C@]3(CC2)NC(=O)[C@H](C)NC(=O)C(=C)NC(=O)[C@H](C)NC(=O)[C@H]([C@@H](C)CC)N[C@@H]2C=Cc3c([C@H](C)O)cc(nc3[C@H]2O)C(=O)O[C@@H]4C)n1)C(N)=O [THIOSTREPTON, reference compound] . 876

Give a short answer stating reported 100 nL (luminescence) for Nc1nc(N)c2nc(-c3ccccc3)c(N)nc2n1 [reference compound] . 3914

Give a short answer stating reported 100 nL (luminescence) for `CC1=CC(=O)[C@H]2C(C)(C)CCC[C@]2(C)[C@@]1(O)CCc1ccoc1` . 1976

Give a short answer stating reported 100 nL (luminescence) for Nc1ncnc2c1ncn2C1O[C@H](COP(=O)(O)O)[C@@H](O)[C@H]1O (stereo partly drawn) [ADENOSINEPHOSPHATE, reference compound] . 924

Give a short answer stating reported 100 nL (luminescence) for COc1cc([C@@H]2c3cc4c(cc3[C@@H](O)[C@H]3COC(=O)[C@H]23)OCO4)cc(OC)c1O [4′-DEMETHYLEPIPODOPHYLLOTOXIN] . 3188

Give a short answer stating reported 100 nL (luminescence) for `CNc1ccccc1C(=O)N1CCc2c([nH]c3ccccc23)C1=O` . 1076

Give a short answer stating reported 100 nL (luminescence) for Oc1ccc2c(c1)OCC1c3cc4c(cc3OC21)OCO4 (stereo not drawn) . 1492

Give a short answer stating reported 100 nL (luminescence) for CCC(C)C(=O)c1c(O)c(C)c2oc3c(C)c(O)c(C(=O)C(C)CC)c(O)c3c2c1O (stereo not drawn) . 1120

----------
molecular target: Nrf2-Keap1 complex (Homo sapiens, UniProt Q14145); test: cell-based; assay type: cell-based
Where a name gives a salt, the structure may show the parent alone.
Neh2-luc reporter activation listing for selected molecules.

The following molecules have reported results that may help.
>  <molecule>
CC1=C(CC(=O)O)c2cc(F)ccc2/C1=C\c1ccc([S+](C)[O-])cc1 (stereo not shown) [reference compound]

>  <result>
200%

$$$$
>  <molecule>
COc1ccc(-c2coc3cc(O)ccc3c2=O)c(O)c1O

>  <result>
> 200%

$$$$
>  <molecule>
Oc1cccc2cccnc12 [8-hydroxyquinoline]

>  <result>
60%

$$$$
>  <molecule>
CN(C)c1ccc(O)c2c1C[C@H]1C[C@H]3[C@H](N(C)C)C(O)=C(C(N)=O)C(=O)[C@@]3(O)C(O)=C1C2=O [MINOCYCLINEHYDROCHLORIDE, reference compound]

>  <result>
200%

$$$$
>  <molecule>
COc1cc([C@@H]2c3cc4c(cc3[C@@H](O[C@@H]3O[C@@H]5CO[C@@H](c6cccs6)O[C@H]5[C@H](O)[C@H]3O)[C@H]3COC(=O)[C@H]23)OCO4)cc(OC)c1O [TENIPOSIDE, reference compound]

>  <result>
200%

$$$$

Give Nrf2-Keap1 complex (Homo sapiens, UniProt Q14145) Neh2-luc reporter activation for the following molecule: CC(=O)O[C@@H]1CC2C(C)(C)[C@H](O)CC[C@]2(C)C2CC[C@@]3(C)[C@H](c4ccoc4)OC(=O)C4OC43[C@@]21C (stereo partly drawn) [alpha-DIHYDROGEDUNOL] 40%

Give Nrf2-Keap1 complex (Homo sapiens, UniProt Q14145) Neh2-luc reporter activation for the following molecule: CC(=O)OC[C@H]1O[C@@H]([S-])[C@H](OC(C)=O)[C@@H](OC(C)=O)[C@@H]1OC(C)=O.CCP(CC)CC.[Au+] [auranofin, reference compound] 200%

Give Nrf2-Keap1 complex (Homo sapiens, UniProt Q14145) Neh2-luc reporter activation for the following molecule: `CC(=O)Oc1ccc(Cl)c2cccnc12` 60%

Give Nrf2-Keap1 complex (Homo sapiens, UniProt Q14145) Neh2-luc reporter activation for the following molecule: CC(=O)O[C@@H]1C[C@H]2C(C)(C)[C@@H](O)CC[C@]2(C)[C@H]2CC[C@@]3(C)[C@H](c4ccoc4)OC(=O)[C@H]4O[C@]43[C@@]21C [beta-DIHYDROGEDUNOL] 220%
